target: Lysine-specific demethylase 4A (Homo sapiens) (UniProt O75164); experiment: qHTS Assay for Inhibitors of JMJD2A-Tudor Domain; conditions: AlphaScreen JMJD2A-Tudor / H3K4me3 peptide binding; series mostly up to 114 µM; note: nearly all actives have a fitted effect of over 50% in size
Sequence (O75164 whole entry, looked up, the tested form may be a part): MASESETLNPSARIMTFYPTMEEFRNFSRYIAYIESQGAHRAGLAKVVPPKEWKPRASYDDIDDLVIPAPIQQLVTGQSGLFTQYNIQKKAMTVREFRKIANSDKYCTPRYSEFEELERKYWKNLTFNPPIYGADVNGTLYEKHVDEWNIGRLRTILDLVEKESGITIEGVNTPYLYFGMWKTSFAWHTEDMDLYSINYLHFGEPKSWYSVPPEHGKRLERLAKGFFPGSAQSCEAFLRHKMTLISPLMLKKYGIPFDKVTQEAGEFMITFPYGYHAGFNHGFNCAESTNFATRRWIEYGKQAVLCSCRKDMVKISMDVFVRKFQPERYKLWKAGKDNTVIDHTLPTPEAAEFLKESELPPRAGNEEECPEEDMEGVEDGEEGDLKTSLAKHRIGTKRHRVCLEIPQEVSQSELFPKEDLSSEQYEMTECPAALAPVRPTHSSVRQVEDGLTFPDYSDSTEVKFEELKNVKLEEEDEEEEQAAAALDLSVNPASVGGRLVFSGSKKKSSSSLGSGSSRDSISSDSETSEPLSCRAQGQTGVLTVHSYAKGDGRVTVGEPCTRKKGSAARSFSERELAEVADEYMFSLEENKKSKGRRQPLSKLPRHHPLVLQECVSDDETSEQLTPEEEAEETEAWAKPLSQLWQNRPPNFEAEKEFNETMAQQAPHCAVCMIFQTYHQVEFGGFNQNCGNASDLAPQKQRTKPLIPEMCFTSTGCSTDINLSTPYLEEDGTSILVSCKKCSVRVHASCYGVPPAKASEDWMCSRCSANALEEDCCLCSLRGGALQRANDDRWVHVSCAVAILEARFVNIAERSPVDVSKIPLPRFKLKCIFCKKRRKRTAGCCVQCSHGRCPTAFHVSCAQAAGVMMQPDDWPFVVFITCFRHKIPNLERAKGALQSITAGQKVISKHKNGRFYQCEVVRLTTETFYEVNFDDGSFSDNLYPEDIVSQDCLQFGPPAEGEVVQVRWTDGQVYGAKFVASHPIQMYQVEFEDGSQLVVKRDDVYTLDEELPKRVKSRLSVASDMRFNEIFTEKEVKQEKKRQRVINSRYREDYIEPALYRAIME
Out of some 390,000 compounds screened, about 17,000 (4.4%) were called active. Inconclusive results (about 8%) are left out. Calls come from the whole dose curve; as a rule, active = well fitted inhibition curve with a large enough effect; inconclusive = small, poorly fitted or top-dose-only effect; inactive = no such curve, though single readings can be large or run the other way. For the sample, actives were picked, then their nearest neighbours and some compounds at random.
Outcomes: label 1 for active, label 0 for inactive

COMPOUND	SYSTEM_TESTED	QUALITATIVE_LABEL
CCOC(=O)Cn1c(=O)n(C2CCCCC2)c2nc(-c3cccc(OC)c3)nc(C(N)=O)c21	Lysine-specific demethylase 4A (Homo sapiens) (UniProt O75164)	label 0
O=C(Nc1nnc(Cc2ccc(Cl)cc2)s1)c1ccncc1	Lysine-specific demethylase 4A (Homo sapiens) (UniProt O75164)	label 0
Cc1ccnc2nc(C(=O)Nc3nnc(-c4ccccc4)o3)nn12	Lysine-specific demethylase 4A (Homo sapiens) (UniProt O75164)	label 0
Cc1ccc(Cl)cc1-n1ncc2c(N3CCC(C(N)=O)CC3)ncnc21	Lysine-specific demethylase 4A (Homo sapiens) (UniProt O75164)	label 0
COc1ccc(S(=O)(=O)Nc2cc3c(C(=O)OC(C)C)c(C)oc3c3ccccc23)cc1	Lysine-specific demethylase 4A (Homo sapiens) (UniProt O75164)	label 0
COc1ccc(NS(=O)(=O)c2ccc(Oc3c(C#N)cccc3C#N)cc2)cc1	Lysine-specific demethylase 4A (Homo sapiens) (UniProt O75164)	label 0
COc1ccccc1Nc1nc(N)nc(CSC(=S)N2CCOCC2)n1	Lysine-specific demethylase 4A (Homo sapiens) (UniProt O75164)	label 0
Cc1cccc(OCC(=O)NCC(=O)N/N=C/c2ccc(N(C)C)cc2)c1	Lysine-specific demethylase 4A (Homo sapiens) (UniProt O75164)	label 0
O=C(Nc1nnc(Cc2ccccc2)s1)c1cnccn1	Lysine-specific demethylase 4A (Homo sapiens) (UniProt O75164)	label 1
CCCCCn1c(CCCNC(=O)c2ccccc2OC)nc2ccccc21	Lysine-specific demethylase 4A (Homo sapiens) (UniProt O75164)	label 0
COc1ccc(Cn2c(=O)c3oc4ccccc4c3n(CC(=O)Nc3ccc(F)cc3F)c2=O)cc1	Lysine-specific demethylase 4A (Homo sapiens) (UniProt O75164)	label 0
CC(=O)c1c(C)n(-c2ccc(C)cc2)c2ccc(O)cc12	Lysine-specific demethylase 4A (Homo sapiens) (UniProt O75164)	label 0
COc1ccc(NC(=O)c2cnc(Nc3ccc(C)c(Cl)c3)c3ccccc23)cc1OC	Lysine-specific demethylase 4A (Homo sapiens) (UniProt O75164)	label 0
Cc1cc(C)c(NC(=O)CSc2nc3nccnc3c(=O)n2CCc2c[nH]c3ccccc23)c(C)c1	Lysine-specific demethylase 4A (Homo sapiens) (UniProt O75164)	label 0
CCOC(=O)c1ccc(NC(=O)C2CC(=O)Nc3nc4ccccc4n32)cc1 (configuration not stated)	Lysine-specific demethylase 4A (Homo sapiens) (UniProt O75164)	label 0
Cc1cc(C)c(NC(=O)Cn2c(SCC(=O)NCc3ccccc3)nc3ccccc32)c(C)c1	Lysine-specific demethylase 4A (Homo sapiens) (UniProt O75164)	label 0
O=C(Nc1nnc(Cc2ccc(Cl)cc2)s1)c1cccnc1	Lysine-specific demethylase 4A (Homo sapiens) (UniProt O75164)	label 0
O=C(Nc1ccccc1)C1CC(=O)n2c(nc3ccccc32)N1 (configuration not stated)	Lysine-specific demethylase 4A (Homo sapiens) (UniProt O75164)	label 1
COc1ccccc1NC1=NC(c2ccc(Cl)cc2)N=C(N)N1 (configuration not stated)	Lysine-specific demethylase 4A (Homo sapiens) (UniProt O75164)	label 0
COc1ccccc1Nc1nc(N)nc(CN(C)C2CCCCC2)n1	Lysine-specific demethylase 4A (Homo sapiens) (UniProt O75164)	label 1
Cc1ccc(C)c(N2CCN(C(=O)Cc3c(C(=O)O)c(C)cn3C)CC2)c1	Lysine-specific demethylase 4A (Homo sapiens) (UniProt O75164)	label 0
Cc1ccc2c(=O)c(C(=O)c3ccc(F)cc3)cn(CC(=O)NC3CCCCC3)c2n1	Lysine-specific demethylase 4A (Homo sapiens) (UniProt O75164)	label 0
